# System: primary murine macrophages
# test.protocol: Cytotoxicity assay on primary murine macrophages (MTT)
# Type: cell-based, Balb/c mice
# protocol.conditions: Balb/c peritoneal macrophages, 72 h, read-out: primary murine macrophage CC50 ± SE (95% CI)
readout.label: CC50 (µM)

test.smiles: O=C(NCCc1ccc(F)cc1)c1ccc(CN(C(=O)N2CCN(CCCc3ccccc3)CC2)c2ccc(F)cc2)o1
observed.measurement: 9.1

====

# experimental.system: Leishmania infantum TR (LiTR) (Leishmania infantum, UniProt A4HSF7)
# Construct: The TbTR and LiTR genes were subcloned in a pET28b vector; 6-His (cleaved yes); made in house; host or cells: E. coli BL21(DE3), pET28b
# Sequence (A4HSF7 1-491): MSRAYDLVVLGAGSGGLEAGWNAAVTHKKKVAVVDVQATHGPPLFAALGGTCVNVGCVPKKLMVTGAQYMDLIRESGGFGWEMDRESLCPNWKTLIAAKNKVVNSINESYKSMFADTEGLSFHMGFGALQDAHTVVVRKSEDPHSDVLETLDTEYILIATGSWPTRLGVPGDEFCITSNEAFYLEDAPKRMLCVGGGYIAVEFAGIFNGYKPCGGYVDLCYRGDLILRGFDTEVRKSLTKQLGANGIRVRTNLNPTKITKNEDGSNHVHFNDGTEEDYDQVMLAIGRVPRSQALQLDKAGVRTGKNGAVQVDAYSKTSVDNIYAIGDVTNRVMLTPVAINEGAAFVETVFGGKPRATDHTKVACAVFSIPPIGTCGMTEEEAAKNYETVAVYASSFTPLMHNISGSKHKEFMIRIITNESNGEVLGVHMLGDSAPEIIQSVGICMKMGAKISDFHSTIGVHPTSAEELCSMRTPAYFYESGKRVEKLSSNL
# test.protocol: LiTR inhibition kinetics, Ki from Dixon plots
# Assay type: biochemical
# protocol.conditions: graphically determined from Dixon plots
readout.label: Ki (nM)

molecule: C[N+]1(CCCc2ccccc2)CCN(C(=O)N(Cc2ccc(C(=O)NCCc3ccc(F)cc3)o2)c2ccc(F)cc2)CC1.[I-] [Compound 9]
experimental.system: Leishmania infantum TR (LiTR) (Leishmania infantum, UniProt A4HSF7)
measurement.unit: nM
observed.measurement: 5500
--
molecule: O=C(NCCc1ccc(F)cc1)c1ccc(CNC(=O)N2CC[N+](CCCc3ccccc3)(Cc3ccc(Cl)c(Cl)c3)CC2)o1.[I-] [Compound 14]
experimental.system: Leishmania infantum TR (LiTR) (Leishmania infantum, UniProt A4HSF7)
measurement.unit: nM
observed.measurement: 800
--
molecule: O=C(NCCc1ccc(F)cc1)c1ccc(CN(C(=O)N2CC[N+](CCCc3ccccc3)(Cc3ccc(Cl)c(Cl)c3)CC2)c2ccc(F)cc2)o1.[I-] [Compound 10]
experimental.system: Leishmania infantum TR (LiTR) (Leishmania infantum, UniProt A4HSF7)
measurement.unit: nM
observed.measurement: 200

====

# experimental.system: hGR (human glutathione reductase) (Homo sapiens)
# Construct: purchased Sigma-Aldrich
# Sequence (P00390 44-522): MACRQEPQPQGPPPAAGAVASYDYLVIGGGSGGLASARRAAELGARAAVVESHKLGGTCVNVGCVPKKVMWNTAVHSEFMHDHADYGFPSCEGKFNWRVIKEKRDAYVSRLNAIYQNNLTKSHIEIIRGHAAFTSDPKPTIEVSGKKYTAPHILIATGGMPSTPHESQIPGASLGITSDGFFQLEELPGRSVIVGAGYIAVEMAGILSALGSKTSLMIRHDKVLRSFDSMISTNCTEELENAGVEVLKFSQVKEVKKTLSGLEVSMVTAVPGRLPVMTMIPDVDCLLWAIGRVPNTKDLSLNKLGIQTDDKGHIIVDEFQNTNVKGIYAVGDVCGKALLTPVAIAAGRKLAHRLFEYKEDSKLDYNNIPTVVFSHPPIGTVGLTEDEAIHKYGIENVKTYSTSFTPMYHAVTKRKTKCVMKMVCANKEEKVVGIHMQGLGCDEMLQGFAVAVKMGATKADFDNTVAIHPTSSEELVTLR
# test.protocol: hGR enzymatic inhibition assay (NADPH oxidation at 340 nm)
# Type: biochemical
# protocol.conditions: hGR versus LiTR
readout.label: SI (ratio of GR IC50/TR IC50)

test.smiles: O=C(NCCc1ccc(F)cc1)c1ccc(CN(C(=O)N2CC[N+](CCCc3ccccc3)(Cc3ccc(Cl)c(Cl)c3)CC2)c2ccc(F)cc2)o1.[I-]
readout.label: SI (ratio of GR IC50/TR IC50)
observed.measurement: 1.7
--
test.smiles: O=C(NCCc1ccc(F)cc1)c1ccc(CNC(=O)N2CC[N+](CCCc3ccccc3)(Cc3ccc(Cl)c(Cl)c3)CC2)o1.[I-]
readout.label: SI (ratio of GR IC50/TR IC50)
observed.measurement: 1.6
--
test.smiles: O=C(NCCc1ccc(F)cc1)c1ccc(CN(C(=O)N2CCN(CCCc3ccccc3)CC2)c2ccc(F)cc2)o1
readout.label: SI (ratio of GR IC50/TR IC50)
observed.measurement: 3
--
test.smiles: C[N+]1(CCCc2ccccc2)CCN(C(=O)N(Cc2ccc(C(=O)NCCc3ccc(F)cc3)o2)c2ccc(F)cc2)CC1.[I-]
readout.label: SI (ratio of GR IC50/TR IC50)
observed.measurement: 3.0

====

Let's look at some compounds and their measured EC50.
# System: L. infantum axenic amastigotes
# test.protocol: In vitro inhibition of axenic amastigote growth (MTT)
# Assay type: cell-based, Leishmania infantum
# protocol.conditions: Leishmania infantum, 72 h, read-out: axenic amastigote EC50 ± SE (95% CI)

compound: O=C(NCCc1ccc(F)cc1)c1ccc(CN(C(=O)N2CC[N+](CCCc3ccccc3)(Cc3ccc(Cl)c(Cl)c3)CC2)c2ccc(F)cc2)o1.[I-]
experimental.system: L. infantum axenic amastigotes
measurement.unit: µM
EC50: 11
--
compound: O=C(NCCc1ccc(F)cc1)c1ccc(CN(C(=O)N2CCN(CCCN3c4ccccc4Sc4ccc(Cl)cc43)CC2)c2ccc(F)cc2)o1
experimental.system: L. infantum axenic amastigotes
measurement.unit: µM
EC50: 12
--
compound: O=C(NCCc1ccc(F)cc1)c1ccc(CNC(=O)N2CCN(CCCc3ccccc3)CC2)o1
experimental.system: L. infantum axenic amastigotes
measurement.unit: µM
EC50: 14.1
--
compound: O=C(NCCc1ccc(F)cc1)c1ccc(CN(C(=O)N2CCN(CCCc3ccccc3)CC2)c2ccc(F)cc2)o1
experimental.system: L. infantum axenic amastigotes
measurement.unit: µM
EC50: 11.5
--
compound: C[C@@H]1[C@H](O)[C@@H](C)/C=C/C=C/C=C/C=C/C=C/C=C/C=C/[C@H](O[C@@H]2O[C@H](C)[C@@H](O)[C@H](N)[C@@H]2O)C[C@@H]2O[C@](O)(C[C@@H](O)C[C@@H](O)[C@H](O)CC[C@@H](O)C[C@@H](O)CC(=O)O[C@H]1C)C[C@H](O)[C@H]2C(=O)O [AmpB, Amphotericin B, reference compound]
experimental.system: L. infantum axenic amastigotes
measurement.unit: µM
EC50: 0.8

====

Let's look at some molecules and their measured pEC50.
# Tested on: L. infantum axenic amastigotes
# test.protocol: In vitro inhibition of axenic amastigote growth (MTT)
# Type: cell-based, Leishmania infantum
# protocol.conditions: Leishmania infantum, 72 h, read-out: axenic amastigote EC50 ± SE (95% CI)
pEC50: −log10 of the molar value.

test.smiles: O=C(NCCc1ccc(F)cc1)c1ccc(CNC(=O)N2CCN(Cc3ccc(Cl)c(Cl)c3)CC2)o1
pEC50: 4.95
--
test.smiles: O=C(Nc1ccc(F)cc1)N1CCN(CCCc2ccccc2)CC1
pEC50: 4.94
--
test.smiles: O=C(NCCc1ccc(F)cc1)c1ccc(CNC(=O)N2CC[N+](CCCc3ccccc3)(Cc3ccc(Cl)c(Cl)c3)CC2)o1.[I-]
pEC50: 5.05
--
test.smiles: O=C(O)c1ccc(N(Cc2ccc(C(=O)NCCc3ccc(F)cc3)o2)C(=O)N2CCN(CCCc3ccccc3)CC2)cc1
pEC50: 4.59
--
test.smiles: C[N+]1(CCCc2ccccc2)CCN(C(=O)N(Cc2ccc(C(=O)NCCc3ccc(F)cc3)o2)c2ccc(F)cc2)CC1.[I-]
pEC50: 4.98
